# key: entry, value: pIC50
target: T1, recombinant human HGF (R&D Systems, Catalog No. 294-HGN-025) (human, UniProt P14210 32-728); experiment: competition ELISA (DELFIA): antibody inhibits c-Met binding to plate-coated HGF
T1 construct: Mature HGF is a disulfide-linked heterodimer of alpha and beta chain cut from one precursor; also called rhHGF (R&D Systems); rhHGF
T1 sequence (P14210 32-728 limits assumed): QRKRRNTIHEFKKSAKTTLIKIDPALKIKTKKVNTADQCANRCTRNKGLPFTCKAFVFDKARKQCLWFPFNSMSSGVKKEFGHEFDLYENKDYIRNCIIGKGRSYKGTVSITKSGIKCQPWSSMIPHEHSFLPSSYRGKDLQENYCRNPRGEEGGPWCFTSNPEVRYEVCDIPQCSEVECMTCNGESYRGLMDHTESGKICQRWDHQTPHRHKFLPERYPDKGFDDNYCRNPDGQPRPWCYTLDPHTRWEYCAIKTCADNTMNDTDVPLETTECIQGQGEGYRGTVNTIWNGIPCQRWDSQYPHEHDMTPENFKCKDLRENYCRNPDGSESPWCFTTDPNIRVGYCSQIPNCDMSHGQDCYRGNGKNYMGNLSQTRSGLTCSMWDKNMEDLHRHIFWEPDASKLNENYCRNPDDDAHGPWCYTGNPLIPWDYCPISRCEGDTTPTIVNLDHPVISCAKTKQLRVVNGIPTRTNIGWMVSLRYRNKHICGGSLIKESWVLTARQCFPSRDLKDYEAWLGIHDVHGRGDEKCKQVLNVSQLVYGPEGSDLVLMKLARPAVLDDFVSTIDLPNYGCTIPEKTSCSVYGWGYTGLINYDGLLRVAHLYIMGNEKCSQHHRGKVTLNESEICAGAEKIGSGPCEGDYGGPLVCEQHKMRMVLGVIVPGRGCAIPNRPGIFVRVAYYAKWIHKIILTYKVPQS
The meaning of pIC50 here: minus log10 of the concentration in molar units.

Looking up anti-hHGF monoclonal antibody 2F8 (antibody, mouse IgG1, kappa, V domains shown, Murine IgG1 kappa from hybridoma) VH: QVQLKQSGAELVRPGTSVKMSCKASGYTFTTYYIHWVNQRPGQGLEWIGKIGPGSGSTYYNEMFKDKATLTVDTSSSTAYMQLSSLTSDDSAVYFCARRGLGRGFDYWGQGTTLTVSS VL: DIVLTQSPASLAVSLGQRATISCKASQSVDYDGNSYINWYQQKPGQPPKVLIYVASNLESGIPARFSGSGSGTDFTLNIHPVEEEDAATYYCQQSIEDPPTFGAGTKLELKR , I found its pIC50 recorded as 8.27

Looking up anti-hHGF monoclonal antibody 3A12 (antibody, mouse IgG1, kappa, V domains shown, Murine IgG1 kappa from hybridoma) VH: EVQLVESGGGLVQPGGSLKISCAASGFTFSNYFMSWVRQTPEKRLEWVAYISSGGGSTYYPDSVKGRFTISRDNAKNTLYLQMNSLKSEDTAMYYCVRQGDGYYGDYAMDYWGQGTSVTVSS VL: DIQMTQSPASLSVSVGETVTITCRASENIYINLAWYQQKQGKSPQLLVHAATKLADGVPSRFSGSGSGTQYSLKINSLQSEDFGSYYCQHFWGTPYTFGGGTKLEIKR , I found its pIC50 recorded as 8.28

Looking up anti-hHGF monoclonal antibody 1F3 (antibody, mouse IgG1, kappa, V domains shown, Murine IgG1 kappa from hybridoma) VH: EVQLVESGGGLVQSGGSLKLSCAASGFTFSNYFMSWVRQTPEKRLEWVAYISSGGGSTYYPDSVKGRFTISRDNAKNTLYLQMSSLKSEDTAMYYCVRQGDGYYGDYAMDYWGQGTSVTVSS VL: DIQMTQSPASLSVSVGETVTITCRASENIYSNLAWYQQKQGKSPQLLVYDATHLPDGVPSRFSGSGSGTQFSLKINSLQSEDFGSYYCQHFWGTPYTFGGGTRLEIKR , I found its pIC50 recorded as 8.18

Looking up anti-hHGF monoclonal antibody 1A3 (antibody, mouse IgG1, kappa, V domains shown, Murine IgG1 kappa from hybridoma) VH: EVQLVESGGGLVQPGGSLKLSCAASEFTFSNYYMSWVRQTPEKRLQWVAYISPGGGSSYYPASVKGRFTISRDNAKNTLYLQMSSLKSEDTAMYYCARQGDGYYGDYAMDYWGQGTSVTVSS VL: DIQMTQSPASLSVSVGETVTITCRASENIYSNLAWYQQKQGKSPQLLVYAATNLADGVPSRFSGSGSGTQFSLKINSLQSEDFGTYYCQHFWGTPYTFGGGTKLEIKR , I found its pIC50 recorded as 8.25

Looking up anti-hHGF monoclonal antibody 3D11 (antibody, mouse IgG1, kappa, V domains shown, Murine IgG1 kappa from hybridoma) VH: QVQLKESGPGLVAPSQSLSITCTVSGFSLTSYSLHWVRQPPGKGLEWLGVIWAGGNTNYNSSLMSRLTIRKDNSKSQVFLKMNSLQTDDTAMYYCARERFAYWGQGTLVTVSA VL: QIVLTQSPAIMSAYPGEKVTMTCSASSSVSYMHWYQQKSGTSPKRWIYDTSKLASGVPARFSGSGSGTSYSLTISSMEAEDAATYYCQQWSSNPLTFGAGTKLELKR , I found its pIC50 recorded as 8.25

Continuing:
Looking up anti-hHGF monoclonal antibody 1D3 (antibody, mouse IgG1, kappa, V domains shown, Murine IgG1 kappa from hybridoma) VH: EVQLVESGGGLVQPGGSLKLSCAASGFTFSDYYMSWVRQTPEKRLEWVAYISSGGGSTYYPDSVKGRFTISRDNAKNTLYLQMSSLKSEDTAIYYCVRQGDGYYGDYAMDYWGQGTSVIVSS VL: DIQMTQSPASLSVSVGETVTITCRTSENIYSNLAWYQQKQGKSPQLLIYAATNLADGVPSRFSGSGSGTQFSLRINSLQSEDFGRYYCQHFWGTPYTFGGGTKLEIKR , I found its pIC50 recorded as 8.35
